Test system: Enterococcus sp.
Assay: in vitro antibacterial evaluation, MIC by broth dilution
Format: cell-based
Settings: broth dilution, inoculum 5×10^5 CFU/mL, 18 hours at 35° C.; strain GC 2242
measure name: MIC Enterococcus faecalis (GC 2242) (mg/L)
Please respond with the number in mg/L and leave the unit unwritten.

Observe how each entry below is paired with its result.
{"molecule": "CC(c1ccccc1)C1NC(=O)CNC(=O)C(CO)NC(=O)C(C(O)C2CNC(=N)N2C2OC(CO)C(O)C(O)C2O)NC(=O)C(C(O)C2CNC(=N)N2)NC(=O)C(Cc2ccc(OC3OC(CO)C(OC4OC5COC(c6ccc(C(=O)c7ccc(I)cc7)cc6)OC5C(O)C4O)C(O)C3O)cc2)NC1=O (stereo not shown)", "unit label": "mg/L", "MIC Enterococcus faecalis (GC 2242)": 2}
{"molecule": "CC(c1ccccc1)C1NC(=O)CNC(=O)C(CO)NC(=O)C(C(O)C2CNC(=N)N2C2OC(CO)C(O)C(O)C2O)NC(=O)C(C(O)C2CNC(=N)N2)NC(=O)C(Cc2ccc(OC3OC(CO)C(OC4OC5COC6(CCCCC6C)OC5C(O)C4O)C(O)C3O)cc2)NC1=O (stereo not shown)", "unit label": "mg/L", "MIC Enterococcus faecalis (GC 2242)": 16}
{"molecule": "CC(c1ccccc1)C1NC(=O)CNC(=O)C(CO)NC(=O)C(C(O)C2CNC(=N)N2C2OC(CO)C(O)C(O)C2O)NC(=O)C(C(O)C2CNC(=N)N2)NC(=O)C(Cc2ccc(OC3OC(CO)C(OC4OC(CO)C(OCC=C(c5ccccc5)c5ccccc5)C(O)C4O)C(O)C3O)cc2)NC1=O (stereo not shown) [Example 241a]", "unit label": "mg/L", "MIC Enterococcus faecalis (GC 2242)": 4}

API: the following record is the query input.
Q: Give me measured MIC Enterococcus faecalis (GC 2242), please, for this molecule: CC(c1ccccc1)C1NC(=O)CNC(=O)C(CO)NC(=O)C(C(O)C2CNC(=N)N2C2OC(CO)C(O)C(O)C2O)NC(=O)C(C(O)C2CNC(=N)N2)NC(=O)C(Cc2ccc(OC3OC(CO)C(OC4OC5COC(c6cccc(Oc7ccccc7)c6)OC5C(O)C4O)C(O)C3O)cc2)NC1=O (stereo not shown)
A: 4

----------
Test system: Staphylococcus sp.
Test: in vitro antibacterial evaluation, MIC by broth dilution
Assay type: cell-based
Conditions: strain GC 1131; broth dilution, 18 hours at 35° C.
// reported MIC Staphylococcus aureus (GC 1131) per item
The answer is to be given in µg/mL; state only the numeric part.

{"compound": "CCCCCCN=C1NCC(C(O)C2NC(=O)C(C(O)C3CNC(=N)N3)NC(=O)C(Cc3ccc(OC4OC(CO)C(OC5OC6COC7(OC6C(O)C5O)C5CC6CC(C5)CC7C6)C(O)C4O)cc3)NC(=O)C(C(C)c3ccccc3)NC(=O)CNC(=O)C(CO)NC2=O)N1C1OC(CO)C(O)C(O)C1O (centres unmarked) [Example 84]", "tgt": "Staphylococcus sp.", "unit label": "µg/mL", "MIC Staphylococcus aureus (GC 1131)": 8}

# input for lookup
Q: Give reported MIC Staphylococcus aureus (GC 1131) value for N=C1NCC(C(O)C2NC(=O)C(Cc3ccc(OC4OC(CO)C(OC5OC6COC(Cc7ccccc7)OC6C(O)C5O)C(O)C4O)cc3)NC(=O)C(CC3CCCCC3)NC(=O)CNC(=O)C(CO)NC(=O)C(C(O)C3CNC(=N)N3C3OC(CO)C(O)C(O)C3O)NC2=O)N1 (centres unmarked) [Example 200]
A: 2
